test-system: Fibroblast growth factor 2 (Homo sapiens)
measurement-protocol: FGF2 binders on small-molecule microarrays, primary screen, biochemical, small-molecule microarray, 635/667 nm fluorescence (AID 1133)
particulars: small-molecule microarray binding, FGF2, fluorescence 635/667; higher = more signal
In this section we review reported composite z-score values for a set of compounds.
Note: the reply should be a number with no unit written.

# example entries with known answers
Give reported composite z-score value for O=C1C2C=CC(C(O)C3CCCCC3)N(Nc3ccccc3F)C2C(=O)N1c1ccccc1 (centres undefined)
-0.494

Give reported composite z-score value for COc1ccc(CCNC(=O)[C@@]2(c3ccc([N+](=O)[O-])cc3)CC(=O)N(C3CCCCC3)[C@@H]2c2ccc(CO)cc2I)cc1
1.24

Further cases:
Give reported composite z-score value for CC[C@@H](O[Si](C#C[Si](C(C)C)(C(C)C)C(C)C)(C(C)C)C(C)C)c1cn([C@H](CO)Cc2ccccc2)nn1
0.729

Give reported composite z-score value for CN1C(=O)C2CC=C(C3=CCO[C@@H]3[C@H]3CCCN3S(=O)(=O)c3ccccc3[N+](=O)[O-])CC2C1=O (some centres undefined)
0.159

----------
test-system: Torsin-1A-interacting protein 1 (Homo sapiens) (UniProt Q5JTV8)
Sequence (Q5JTV8 whole entry, looked up): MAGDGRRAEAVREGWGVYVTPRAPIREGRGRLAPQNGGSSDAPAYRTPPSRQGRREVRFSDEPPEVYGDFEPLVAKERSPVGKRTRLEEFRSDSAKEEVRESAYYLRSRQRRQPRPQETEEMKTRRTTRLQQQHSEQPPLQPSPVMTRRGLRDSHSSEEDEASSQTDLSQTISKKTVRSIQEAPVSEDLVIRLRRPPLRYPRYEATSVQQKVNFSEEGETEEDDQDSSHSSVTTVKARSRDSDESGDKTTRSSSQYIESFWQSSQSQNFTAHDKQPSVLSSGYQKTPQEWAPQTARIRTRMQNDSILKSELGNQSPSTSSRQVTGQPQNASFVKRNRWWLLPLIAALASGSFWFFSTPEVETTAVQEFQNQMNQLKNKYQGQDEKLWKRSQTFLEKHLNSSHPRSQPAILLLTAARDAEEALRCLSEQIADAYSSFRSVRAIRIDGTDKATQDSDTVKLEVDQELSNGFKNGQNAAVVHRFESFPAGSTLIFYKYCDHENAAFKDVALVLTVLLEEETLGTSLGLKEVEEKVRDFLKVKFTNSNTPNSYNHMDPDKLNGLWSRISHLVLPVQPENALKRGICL
measurement-protocol: LAP1 binders from COS7 cell lysate, primary screen, small-molecule microarray, 635/667 nm fluorescence (AID 1116)
particulars: COS7-hLAP1 lysate binding, 635 nm fluorescence, higher = more signal
In this section we review reported composite z-score values for a set of compounds.
Note: the reply should be a number with no unit written.

# example entries with known answers
Give reported composite z-score value for CC1(C)OB(/C=C\CC(OC(=O)c2ccncc2)c2ccccc2)OC1(C)C (configuration not stated)
0.161

Give reported composite z-score value for Cc1c(NC(=O)/C(C#N)=C/C=C/c2ccc([N+](=O)[O-])cc2)c(=O)n(-c2ccccc2)n1C
1.37

Give reported composite z-score value for CC[C@@H](O[Si](C#C[Si](C(C)C)(C(C)C)C(C)C)(C(C)C)C(C)C)c1cn([C@H](CO)Cc2ccccc2)nn1
0.739

Give reported composite z-score value for C=CCNC(=O)[C@@H]1[C@H]2C(=O)O[C@H](c3ccccc3)[C@H](c3ccccc3)N2[C@H](c2ccc(OCCO)cc2)[C@@]12C(=O)Nc1ccc(C#CC3=CCCCC3)cc12
0.803

Give reported composite z-score value for NCCCCCCNC(=O)[C@@H]1C[C@@H]2C(=O)NCC(=O)N2[C@@H]1c1cccc(OCCO)c1
0.95

Give reported composite z-score value for COC(=O)[C@@]1(Cc2ccccc2)[C@H]2c3cc(C(=O)N(C)C)n(Cc4nc5ccccc5[nH]4)c3C[C@H]2CN1C(=O)c1ccccc1
1.62

Further cases:
Give reported composite z-score value for O=C1C2C=CC(C(O)C(c3ccccc3)c3ccccc3)N(Nc3ccccc3F)C2C(=O)N1c1ccccc1 (configuration not stated)
0.855

----------
measurement-protocol: binders from COS7 lysate, DM2A8 probe, primary screen, torsin A project, cell lysate, small-molecule microarray, fluorescence 635/667 (AID 1065)
particulars: higher = more signal, COS7 lysate expressing mutant human TOR1A
In this section we review reported composite z-score values for a set of compounds.
Note: the reply should be a number with no unit written.

# example entries with known answers
Give reported composite z-score value for COC(=O)C1=CC(CCCO)=CC(c2ccc(CN3CCCC3)cc2)N(C)C=C1C(=O)OC (configuration not stated)
1.34

Give reported composite z-score value for C=C(COC)C(=O)CC[C@H](OC(C)=O)c1ccc(CO)o1
0.275

Give reported composite z-score value for COc1ccc([Si](C)(C)[C@H]2[C@H](CC(=O)N(CCO)Cc3ccccc3)O[C@@]3(C(=O)N(Cc4ccc(N5C(=O)c6cccc7cccc5c67)cc4)c4ccccc43)[C@@H]2C)cc1
0.285

Give reported composite z-score value for COC(=O)[C@@]1(Cc2ccc(F)cc2)[C@H]2c3cc(C(=O)N4CCCC4)n(CCSCCO)c3C[C@H]2CN1C(=O)c1ccccc1
-0.366

Give reported composite z-score value for COCCCNC(=O)[C@]1(Cc2ccccc2CN=[N+]=[N-])N=C(c2ccc(OCCCO)cc2)O[C@@H]1c1ccccc1N=[N+]=[N-]
0.694

Give reported composite z-score value for C=CCNC(=O)[C@H]1[C@@H]2C(=O)O[C@@H](c3ccccc3)[C@@H](c3ccccc3)N2[C@@H](c2ccc(O)cc2)[C@]12C(=O)Nc1ccc(C#CCC(C(=O)OC)C(=O)OC)cc12
-0.0975

Give reported composite z-score value for COc1ccc(NN2C(C(O)c3ccccc3)C=CC3C(=O)N(C4CCCCC4)C(=O)C32)cc1 (configuration not stated)
0.166

Give reported composite z-score value for C=CCOC(=O)[C@H]1[C@@H]2C(=O)O[C@@H](c3ccccc3)[C@@H](c3ccccc3)N2[C@@H](c2ccc(OCCOC(=O)[C@H]3C[C@H]4C(=O)NCC(=O)N4[C@H]3c3cccc(OCCO)c3)cc2)[C@]12C(=O)Nc1ccc(I)cc12
0.469

Give reported composite z-score value for C=CC[C@H](OC(=O)Nc1ccc(SC)cc1)c1ccc(O)c(F)c1
0.274

Give reported composite z-score value for CC(C)(C)OC(=O)CC[C@@]1(C(N)=O)N=C(c2ccc(OCCCO)cc2)O[C@@H]1c1ccccc1CN=[N+]=[N-]
0.87

Further cases:
Give reported composite z-score value for COc1ccc([Si](C)(C)[C@H]2[C@H](CC(=O)N3CCC[C@H]3CO)O[C@@]3(C(=O)N(C)c4c(Br)cc(C)cc43)[C@@H]2C)cc1
1.88

Give reported composite z-score value for C=CCC(OC(C)=O)[C@@H]1[C@@H](N(Cc2cccc3ccccc23)C(=O)c2ccc(C)cc2)c2cc(OCCCO)ccc2N1C(=O)Cc1ccc2ccccc2c1 (some centres not stated)
-0.124

Give reported composite z-score value for C=CCOC(=O)[C@@H]1[C@H]2C(=O)O[C@H](c3ccccc3)[C@H](c3ccccc3)N2[C@H](c2ccc(OCCOC(=O)[C@@H]3C[C@@H]4C(=O)N[C@@H](CC(C)C)C(=O)N4[C@@H]3c3ccc(O)cc3)cc2)[C@@]12C(=O)Nc1ccc(I)cc12
0.17

Give reported composite z-score value for CCCCC=C[C@@H](NC(=O)C(C)(C)C)c1ccccc1
0.161

Give reported composite z-score value for O=C1O[C@H](c2ccccc2)[C@H](c2ccccc2)N2[C@H]1[C@@H](C(=O)Nc1nc3ccccc3s1)[C@]1(C(=O)Nc3ccccc31)[C@H]2c1ccccc1OCCO
-0.0611

Give reported composite z-score value for COC(=O)[C@@]1(Cc2ccccc2)[C@H]2c3cc(C(=O)N(C)C)n(Cc4nc5ccccc5[nH]4)c3C[C@H]2CN1C(=O)c1ccccc1
1.08

Give reported composite z-score value for C[N+](C)(C)CCCC[C@@H]1NC(=O)[C@H]2C[C@@H](C(=O)NCCCCCN)[C@@H](c3ccc(O)cc3)N2C1=O
1.95

Give reported composite z-score value for COc1ccc([Si](C)(C)[C@@H]2[C@@H](CC(=O)N3CCC[C@H]3CO)O[C@]3(C(=O)N(Cc4cccc(N5C(=O)c6cccc7cccc5c67)c4)c4ccccc43)[C@H]2C)cc1
0.342

Give reported composite z-score value for CC(C)(C)OC(=O)CC[C@]1(C(=O)N2CCOCC2)COC(c2ccc(OCCCO)cc2)=N1
0.667

Give reported composite z-score value for COCCOC(=O)N1C(=O)[C@@]2(c3cc(C#CCNC(N)=O)ccc31)[C@H](C(=O)N1CCN(c3ncccn3)CC1)[C@H]1C(=O)O[C@H](c3ccccc3)[C@H](c3ccccc3)N1[C@@H]2c1ccc(O)cc1
0.0122

Give reported composite z-score value for CCCCC(=C=CC[C@H](O)c1ccccc1OCCO)CCO
-0.46

Give reported composite z-score value for COCCOC(=O)N1C(=O)[C@@]2(c3cc(C#CCCO)ccc31)[C@H](c1ccc(O)cc1)N1[C@H](c3ccccc3)[C@H](c3ccccc3)OC(=O)[C@H]1[C@@H]2C(=O)NC[C@H](O)c1ccccc1
0.332

----------
In this section we review reported composite z-score values for a set of molecules.
measurement-protocol: small-molecule microarray binders of probe aLefty2, primary screen, biochemical, biotinylated probe, 635/667 nm fluorescence (AID 1094);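 also: score merges spot fluorescence near 667 nm with spot signal-to-noise ratio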
particulars: higher = more signal

# example entries with known answers
Give reported composite z-score value for CC(C)(C)OC(=O)CC[C@]1(C(N)=O)N=C(c2ccc(OCCCO)cc2)O[C@H]1c1ccccc1N=[N+]=[N-]
0.0598

Give reported composite z-score value for COc1ccc(CCNC(=O)[C@@H]2c3ccccc3C(=O)N(C(C)C)[C@H]2c2ccc(CO)cc2)cc1
0.0129

Give reported composite z-score value for O=C/C=C/c1ccc(-c2ccccc2)cc1
-0.103

Give reported composite z-score value for OCCCc1cc[n+](Cc2cc3c(cc2Br)OCO3)cc1
0.193

Give reported composite z-score value for COc1cc(CO)cc(I)c1O[C@H]1C=C(C(=O)NCCO)C[C@@H](N(CCN2CCOCC2)C(=O)C2CCCO2)[C@@H]1O (some centres undefined)
-0.172

Give reported composite z-score value for COCCCNC(=O)[C@@]1(c2ccc([N+](=O)[O-])cc2)CC(=O)N(C2CCCCC2)[C@@H]1c1ccc(CO)cc1I
0.0561

Further cases:
Give reported composite z-score value for C=CC[C@]12N=C(c3ccc(OCCCO)cc3)O[C@H]1c1ccccc1N(CCC)C2=O
0.15

Give reported composite z-score value for COc1c(C)cc(-c2nc(-c3ccccc3)c3c(c2C)CO[Si]3(C(C)C)C(C)C)cc1C
0.074

Give reported composite z-score value for CC1(C)OB(/C=C\CC(OC(=O)c2ccncc2)c2ccccc2)OC1(C)C (centres undefined)
1.22
